Target: T1, canine IL-31 protein (Canine_IL31) (canine)
T1 chain: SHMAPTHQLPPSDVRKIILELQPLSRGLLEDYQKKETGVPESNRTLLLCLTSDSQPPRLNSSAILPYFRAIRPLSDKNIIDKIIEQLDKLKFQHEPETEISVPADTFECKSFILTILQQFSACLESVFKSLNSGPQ
Test: SPR (Biacore), IL-31 on chip, 1:1 fit
measurement_label: koff (s⁻¹)
Enter your answer as a number in s⁻¹; do not include the unit.

The binder Feline 15H05 1.1 FW2_3 (antibody, V domains shown) VH: QVLLVQSGAEVRTPGASVKIFCKASGYSFTSYTIHWLRQAPAQGLEWMGNINPTSGYTENNQRFKDRLTLTADTSTNTAYMELSSLRSADTAMYYCARWGFKYDGEWSFDVWGAGTTVTVSS VL: EIQMTQSPSSLSASPGDRVTITCRASQGISIWLSWYQQKPGNIPKVLINKASNLHIGVPPRFSGSGSGTHFTLTITSLQPEDIATYYCLQSQTYPLTFGGGTKLEIK showed koff equal to 0.00193

The binder Feline 15H05 1.1 FW2 (antibody, V domains shown, also called felinized 15H05 1.1 FW2) VH: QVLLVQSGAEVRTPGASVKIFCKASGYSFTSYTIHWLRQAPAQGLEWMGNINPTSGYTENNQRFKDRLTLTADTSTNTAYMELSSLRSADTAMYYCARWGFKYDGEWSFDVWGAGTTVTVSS VL: EIQMTQSPSSLSASPGDRVTITCRASQGISIWLSWYQQKPGNIPKVLINKASNLHIGVPSRFSGSGSGTDFTLTISSLEPEDAATYYCLQSQTYPLTFGGGTKLEIK showed koff equal to 1.66e-07

The binder Feline 15H05 1.1 (antibody, V domains shown, Feline heavy and kappa constant regions) VH: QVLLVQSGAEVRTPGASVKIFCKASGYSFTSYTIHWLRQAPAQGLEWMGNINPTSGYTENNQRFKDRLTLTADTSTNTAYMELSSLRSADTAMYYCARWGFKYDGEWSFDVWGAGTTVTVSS VL: EIQMTQSPSSLSASPGDRVTITCRASQGISIWLSWYQQKPGKVPKLLIYKASNLHIGVPSRFSGSGSGTDFTLTISSLEPEDAATYYCLQSQTYPLTFGGGTKLEIK showed koff equal to 1.36e-07

The binder Feline 15H05 3.2 (antibody, V domains shown, Feline heavy and kappa constant regions) VH: QVLLVQSGAEVRKPGASVKIFCKASGYSFTSYTIHWLRQAPEQGLEWMGNINPTSGYTENNQRFKDRLTLTADTSTNTAYMELSSLRSADTAMYYCARWGFKYDGEWSFDVWGAGTTVTVSS VL: EITMTQSPGSLAGSPGQQVTMNCRASQGISIWLSWYQQKPGQHPKLLIYKASNLHIGVPDRFSGSGSGTDFTLTISNLQAEDVASYYCLQSQTYPLTFGGGTKLEIK showed koff equal to 6.04e-06

The binder Feline 15H05 VH2 mouse VL (antibody, V domains shown, also called felinized 15H05 VH2 with mouse 15H05 VL (heterochimera)) VH: QVLLVQSGAEVRTPGASVKIFCKASGYGFTSYTIHWVRQSPAQGLEWMGNINPTSGYTENNQRFKDRLTLTADTSTNTAYMELSSLRSADTAMYYCARWGFKYDGEWSFDVWGAGTTVTVSS VL: DIQMNQSPSSLSASLGDTITVTCRASQGISIWLSWYQQKPGNIPKVLINKASNLHIGVPPRFSGSGSGTHFTLTITSLQPEDIATYYCLQSQTYPLTFGGGTKLEIN showed koff equal to 0.000379
